- TARGET: MLK3 (Homo sapiens, UniProt Q16584)
- Construct: 2 μg/ml of baculoviral GST-MLK3KD; GST (N); made in house
- Sequence (Q16584 117-379 limits assumed, species assumed): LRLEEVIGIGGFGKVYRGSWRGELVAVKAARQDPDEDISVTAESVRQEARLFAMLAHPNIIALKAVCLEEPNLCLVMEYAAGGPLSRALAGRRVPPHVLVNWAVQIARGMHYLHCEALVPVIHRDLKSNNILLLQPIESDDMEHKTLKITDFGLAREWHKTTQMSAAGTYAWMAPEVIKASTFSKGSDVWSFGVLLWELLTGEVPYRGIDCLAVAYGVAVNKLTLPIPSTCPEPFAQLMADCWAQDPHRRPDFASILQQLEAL
- PROCEDURE DETAILS: Inhibition of Mixed Lineage Kinase-3 (MLK3) activity
- Assay type: biochemical
- EXPERIMENTAL SETUP: 100 μM ATP; values without % sign
pIC50: −log10 of the molar value.
PROPERTY NAME: pIC50

CCOCc1ccc2c(c1)c1c3c(c4c(c1n2CC(C)O)Cc1ccccc1-4)C(=O)NC3 (stereo not drawn)    7.52
O=C1NCc2c1c1c(c3c2c2ccccc2n3CCCO)Cc2ccccc2-1 [Compound B, reference compound]    7.77

(I) O=C1NCc2c1c1c(c3c2c2cc(CO)ccc2n3CCCO)Cc2ccccc2-1
(II) CCCCOCc1ccc2c(c1)c1c3c(c4c(c1n2CCCO)Cc1ccccc1-4)C(=O)NC3
(III) O=C1NCc2c1c1c(c3c2c2ccccc2n3CCO)Cc2ccccc2-1 [A, reference compound]
// query Endpoint returns the given compounds ordered by ascending pIC50. Reply with the item labels sorted in the order that was asked for.
// result II, III, I
(II: 7.82, III: 8.10, I: 8.30)

(A) CC(O)c1ccc2c(c1)c1c3c(c4c(c1n2CCCO)Cc1ccccc1-4)C(=O)NC3 (stereo not drawn)
(B) CCCCOC(C)c1ccc2c(c1)c1c3c(c4c(c1n2CCCO)Cc1ccccc1-4)C(=O)NC3 (stereo not drawn)
(C) CCOCc1ccc2c(c1)c1c3c(c4c(c1n2CCCO)Cc1ccccc1-4)C(=O)NC3
// query Endpoint returns the given compounds ordered by ascending pIC50. Reply with the item labels sorted in the order that was asked for.
// result B, A, C
(B: 7.57, A: 7.80, C: 8.40)

(I) O=C1NCc2c1c1c(c3c2c2cc(CSc4ccccn4)ccc2n3CCCO)Cc2ccccc2-1
(II) O=C1NCc2c1c1c(c3c2c2cc(CO)ccc2n3CCO)Cc2ccccc2-1
// query Kindly identify which of I and II has the larger recorded pIC50 value. Write down the label attached to your selection.
// result I

(a) CC(C)OCc1ccc2c(c1)c1c3c(c4c(c1n2CCCOC(=O)CCN)Cc1ccccc1-4)C(=O)NC3
(b) CCOC(C)c1ccc2c(c1)c1c3c(c4c(c1n2CCCO)Cc1ccccc1-4)C(=O)NC3 (single isomer, unassigned)
// query Which of these two has the smaller recorded pIC50: a or b ? Write down the label attached to your selection.
// result a

====

- TARGET: VEGF receptor (human flk-1, KDR, VEGFR2) kinase domain (Homo sapiens, UniProt P35968)
- Construct: VEGF receptor (human flk-1, KDR, VEGFR2) kinase domain; made in house
- Sequence (P35968 834-1162 limits assumed): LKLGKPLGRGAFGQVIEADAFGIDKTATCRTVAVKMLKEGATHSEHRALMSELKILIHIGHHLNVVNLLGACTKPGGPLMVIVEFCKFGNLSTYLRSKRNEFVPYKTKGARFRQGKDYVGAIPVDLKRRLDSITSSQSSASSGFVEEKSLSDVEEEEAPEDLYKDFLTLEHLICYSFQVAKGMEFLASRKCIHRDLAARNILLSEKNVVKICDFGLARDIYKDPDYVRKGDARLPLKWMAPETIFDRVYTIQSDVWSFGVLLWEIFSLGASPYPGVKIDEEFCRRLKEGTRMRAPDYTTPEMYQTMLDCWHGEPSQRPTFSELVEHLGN
- PROCEDURE DETAILS: Inhibition of VEGF receptor kinase activity (ELISA)
- Assay type: biochemical
- EXPERIMENTAL SETUP: 40 μM ATP; values without % sign
- Protocol: Fused pyrrolocarbazole compounds were examined for their inhibitory effects on the kinase activity of baculovirus-expressed VEGF receptor (human flk-1, KDR, VEGFR2) kinase domain using the procedure described for the trkA kinase ELISA assay described below. […] The activity of the bound enzyme was measured via an amplified detection system (Gibco-BRL). Inhibition data were analyzed using the sigmoidal dose-response (variable slope) equation in GraphPad Prism. […]
pIC50: −log10 of the molar value.
PROPERTY NAME: pIC50

Worked examples, 2 molecules total:
CCOC(C)c1ccc2c(c1)c1c3c(c4c(c1n2CCCO)Cc1ccccc1-4)C(=O)NC3 (stereo not shown) [Compound 10]    7.08
O=C1NCc2c1c1c(c3[nH]c4ccc(CO)cc4c23)Cc2ccccc2-1    6.52

(a) COc1ccc2[nH]c3c4c(c5c(c3c2c1)CNC5=O)-c1ccccc1C4 [D, reference compound]
(b) CC(C)OC(C)c1ccc2c(c1)c1c3c(c4c(c1n2CCCO)Cc1ccccc1-4)C(=O)NC3 (stereo not shown)
// query Which of these two has the smaller recorded pIC50: a or b ? Write down the label attached to your selection.
// result b
(b: 6.39, a: 6.70)

====

- TARGET: MLK3 (Homo sapiens)
- Construct: 2 μg/ml of baculoviral GST-MLK3KD; GST (N); made in house
- PROCEDURE DETAILS: Inhibition of Mixed Lineage Kinase-3 (MLK3) activity
- Type: biochemical
- EXPERIMENTAL SETUP: 100 nM compound; 100 μM ATP
PROPERTY NAME: inhibition at 0.1 µM (%)

(A) CC(C)CC(N)C(=O)OCCCn1c2ccccc2c2c3c(c4c(c21)Cc1ccccc1-4)C(=O)NC3 (centres unmarked) [C, reference compound]
(B) CCSCc1ccc2c(c1)c1c3c(c4c(c1n2CCO)Cc1ccccc1-4)C(=O)NC3 [Compound 24]
// query Which of these two has the smaller recorded inhibition at 0.1 µM: A or B ? Write down the label attached to your selection.
// result A
(A: 30%, B: 55%)

(1) O=C1NCc2c1c1c(c3c2c2cc(CSc4ncccn4)ccc2n3CCCO)Cc2ccccc2-1 [Compound 39]
(2) CCC(O)c1ccc2c(c1)c1c3c(c4c(c1n2CCCO)Cc1ccccc1-4)C(=O)NC3 (centres unmarked) [Compound 34]
// query Kindly identify which of 1 and 2 has the larger recorded inhibition at 0.1 µM value. Write down the label attached to your selection.
// result 1

====

- TARGET: VEGF receptor (human flk-1, KDR, VEGFR2) kinase domain (Homo sapiens, UniProt P35968)
- Construct: VEGF receptor (human flk-1, KDR, VEGFR2) kinase domain; made in house
- PROCEDURE DETAILS: Inhibition of VEGF receptor kinase activity (ELISA)
- Format: biochemical
- EXPERIMENTAL SETUP: 40 μM ATP; values without % sign
pIC50: −log10 of the molar value.
PROPERTY NAME: pIC50

Worked examples, 5 molecules total:
CCC(C)OCc1ccc2c(c1)c1c3c(c4c(c1n2CCCO)Cc1ccccc1-4)C(=O)NC3 (stereo not shown)    7.92
CCCCOCc1ccc2c(c1)c1c3c(c4c(c1n2CCCO)Cc1ccccc1-4)C(=O)NC3    7.74
CCC(O)c1ccc2c(c1)c1c3c(c4c(c1n2CCCO)Cc1ccccc1-4)C(=O)NC3 (stereo not shown)    8.15
COCc1ccc2c(c1)c1c3c(c4c(c1n2CCCO)Cc1ccccc1-4)C(=O)NC3    7.77
CCOC(C)c1ccc2c(c1)c1c3c(c4c(c1n2CCCO)Cc1ccccc1-4)C(=O)NC3 (single isomer, unassigned) [Compound 12]    6.62

(A) CC[C@H](C)OCc1ccc2c(c1)c1c3c(c4c(c1n2CCCO)Cc1ccccc1-4)C(=O)NC3
(B) CCOCc1ccc2[nH]c3c4c(c5c(c3c2c1)CNC5=O)-c1ccccc1C4C(C)O (single isomer, unassigned)
// query Kindly identify which of A and B has the larger recorded pIC50 value. Write down the label attached to your selection.
// result A

====

- TARGET: VEGF receptor (human flk-1, KDR, VEGFR2) kinase domain (Homo sapiens)
PROPERTY NAME: IC50 (nM)

CC(C)SCc1ccc2c(c1)c1c3c(c4c(c1n2CCCO)Cc1ccccc1-4)C(=O)NC3    57
CCOC(C)c1ccc2c(c1)c1c3c(c4c(c1n2CCCO)Cc1ccccc1-4)C(=O)NC3 (single isomer, unassigned) [Compound 11]    65
O=C1NCc2c1c1c(c3c2c2ccccc2n3CCO)Cc2ccccc2-1 [A, reference compound]    107
O=C1NCc2c1c1c(c3c2c2ccccc2n3CCCO)Cc2ccccc2-1 [Compound B, reference compound]    48
CCSCc1ccc2c(c1)c1c3c(c4c(c1n2CCCO)Cc1ccccc1-4)C(=O)NC3    21

(P) CC(C)OCc1ccc2c(c1)c1c3c(c4c(c1n2CCCOC(=O)CN)Cc1ccccc1-4)C(=O)NC3
(Q) CC(O)c1ccc2c(c1)c1c3c(c4c(c1n2CCCO)Cc1ccccc1-4)C(=O)NC3 (stereo not shown)
// query Kindly identify which of P and Q has the larger recorded IC50 value. Write down the label attached to your selection.
// result Q
(Q: 111 nM, P: 23 nM)

====

- TARGET: MLK2 (Homo sapiens)
- Construct: fused on or other part: GST tag
- Sequence (Q02779 98-440 limits assumed): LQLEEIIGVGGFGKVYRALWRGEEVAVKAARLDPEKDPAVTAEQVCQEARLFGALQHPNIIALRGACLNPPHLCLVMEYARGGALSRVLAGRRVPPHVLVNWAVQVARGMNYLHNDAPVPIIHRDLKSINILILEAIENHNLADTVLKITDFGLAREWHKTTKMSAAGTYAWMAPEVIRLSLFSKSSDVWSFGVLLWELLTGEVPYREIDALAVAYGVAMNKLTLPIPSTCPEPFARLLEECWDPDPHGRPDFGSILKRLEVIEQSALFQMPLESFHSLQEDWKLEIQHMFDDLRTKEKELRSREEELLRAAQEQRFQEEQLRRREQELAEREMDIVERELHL
- PROCEDURE DETAILS: Inhibition of Mixed Lineage Kinase-2 (MLK2) activity
- Type: biochemical
- EXPERIMENTAL SETUP: 100 nM compound; 100 μM ATP
PROPERTY NAME: inhibition at 0.1 µM (%)

CCCOCc1ccc2c(c1)c1c3c(c4c(c1n2CCCO)Cc1ccccc1-4)C(=O)NC3 [Compound 8]    76

(1) O=C1NCc2c1c1c(c3c2c2cc(CO)ccc2n3CCCO)Cc2ccccc2-1 [Compound 29]
(2) O=C1NCc2c1c1c(c3c2c2ccccc2n3CCO)Cc2ccccc2-1 [A, reference compound]
// query Kindly identify which of 1 and 2 has the larger recorded inhibition at 0.1 µM value. Write down the label attached to your selection.
// result 1
